I'd appreciate it if you could supply self-splicing fitness (ln) values for the items below.
- Method notes: self-splicing fitness, log relative to wild type (ln ratio); higher = more splicing; Tetrahymena group I intron in knt gene, E. coli kanamycin selection, DiMSum; sequences stand for … in CUCUCU…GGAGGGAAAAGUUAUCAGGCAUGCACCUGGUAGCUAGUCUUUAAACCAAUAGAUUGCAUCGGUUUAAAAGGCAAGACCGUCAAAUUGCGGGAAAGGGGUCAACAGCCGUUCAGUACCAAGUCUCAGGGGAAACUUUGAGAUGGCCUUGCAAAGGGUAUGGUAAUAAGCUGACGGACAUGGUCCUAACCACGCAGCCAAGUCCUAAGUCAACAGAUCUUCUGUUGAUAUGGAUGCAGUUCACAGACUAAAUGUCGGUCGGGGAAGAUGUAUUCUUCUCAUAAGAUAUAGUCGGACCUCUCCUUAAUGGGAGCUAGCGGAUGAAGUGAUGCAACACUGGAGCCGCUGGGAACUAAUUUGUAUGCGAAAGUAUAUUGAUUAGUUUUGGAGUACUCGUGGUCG;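 also: selection with 25 µg/mL kanamycin versus none on LB agar overnight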
- Applied conditions: 37 °C
Give the value as a plain number.

Name the recorded self-splicing fitness (ln) of the sequence listed here: `UGAGAGCAAUAUUACGUUCU`
-2.03

Name the recorded self-splicing fitness (ln) of the sequence listed here: `AAUUAGCAAUAUUACGGAGA`
-1.98

Name the recorded self-splicing fitness (ln) of the sequence listed here: `ACCGAGCAAUAUUACGACCU`
-0.53

Name the recorded self-splicing fitness (ln) of the sequence listed here: `AGGGAGCAAUAUUACGAACG`
-1.9

Name the recorded self-splicing fitness (ln) of the sequence listed here: `GUGAAGCAAUAUUACGAAGC`
-1.06

Name the recorded self-splicing fitness (ln) of the sequence listed here: `GGGAAGCAAUAUUACGUCCG`
-0.461

Name the recorded self-splicing fitness (ln) of the sequence listed here: `UAAUAGCAAUAUUACGAGUU`
-2.31

Name the recorded self-splicing fitness (ln) of the sequence listed here: `GGUAAGCAAUAUUACGUCUC`
-1.27

Name the recorded self-splicing fitness (ln) of the sequence listed here: `UAUCAGCAAUAUUACGGGAU`
-1.72

Name the recorded self-splicing fitness (ln) of the sequence listed here: `GCGUAGCAAUAUUACGGAAA`
-0.0155

----------
- Method notes: self-splicing fitness, log relative to wild type (ln ratio); higher = more splicing; Tetrahymena group I intron in knt gene, E. coli kanamycin selection, DiMSum; sequences stand for … in CUCUCU…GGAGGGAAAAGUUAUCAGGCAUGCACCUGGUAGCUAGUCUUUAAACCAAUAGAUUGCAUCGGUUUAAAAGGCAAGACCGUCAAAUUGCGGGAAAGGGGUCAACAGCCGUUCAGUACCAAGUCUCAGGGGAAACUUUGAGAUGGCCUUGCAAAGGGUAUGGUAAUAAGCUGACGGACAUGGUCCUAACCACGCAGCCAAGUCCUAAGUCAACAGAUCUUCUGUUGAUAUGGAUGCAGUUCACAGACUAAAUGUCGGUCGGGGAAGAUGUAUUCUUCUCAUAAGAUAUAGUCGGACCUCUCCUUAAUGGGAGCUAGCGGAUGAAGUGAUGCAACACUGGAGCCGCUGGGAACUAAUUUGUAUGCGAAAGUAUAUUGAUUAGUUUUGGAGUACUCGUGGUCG
- Applied conditions: 30 °C
Lab note: anything with self-splicing fitness (ln) at or over -3 counts as 1.0; the rest go in 0.0.

Is self-splicing fitness (ln) at least -3? Consider `GGGAAGCAAUAUUACGUUAA`
1.0

Is self-splicing fitness (ln) at least -3? Consider `UGUAAGCAAUAUUACGUCGG`
1.0

Is self-splicing fitness (ln) at least -3? Consider `UGGUAGCAAUAUUACGGUUC`
0.0

Is self-splicing fitness (ln) at least -3? Consider `AAUUAGCAAUAUUACGUAGG`
1.0

Is self-splicing fitness (ln) at least -3? Consider `AGUAAGCAAUAUUACGUAUU`
1.0

----------
- Method notes: self-splicing fitness, log relative to wild type (ln ratio); higher = more splicing; Tetrahymena group I intron in knt gene, E. coli kanamycin selection, DiMSum; sequences stand for … in CUCUCU…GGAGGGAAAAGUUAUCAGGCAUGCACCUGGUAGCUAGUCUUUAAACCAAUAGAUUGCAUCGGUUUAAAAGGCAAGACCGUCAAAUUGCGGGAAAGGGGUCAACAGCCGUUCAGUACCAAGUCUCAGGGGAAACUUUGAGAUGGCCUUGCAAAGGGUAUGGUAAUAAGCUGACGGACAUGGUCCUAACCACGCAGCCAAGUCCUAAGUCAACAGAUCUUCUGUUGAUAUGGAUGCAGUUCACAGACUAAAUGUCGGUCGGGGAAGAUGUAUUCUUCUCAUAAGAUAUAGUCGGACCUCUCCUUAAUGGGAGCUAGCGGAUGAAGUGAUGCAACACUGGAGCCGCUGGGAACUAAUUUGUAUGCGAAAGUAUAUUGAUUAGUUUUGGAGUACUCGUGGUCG
- Applied conditions: 30 °C
I'd appreciate it if you could supply self-splicing fitness (ln) values for the items below.
Give the value as a plain number.

Name the recorded self-splicing fitness (ln) of the sequence listed here: `GGACAGCAAUAUUACGGAGA`
-2.98

Name the recorded self-splicing fitness (ln) of the sequence listed here: `CGCCAGCAAUAUUACGACUC`
-3.02

Name the recorded self-splicing fitness (ln) of the sequence listed here: `AUCUAGCAAUAUUACGCGGA`
-1.69

----------
- Method notes: self-splicing fitness, log relative to wild type (ln ratio); higher = more splicing; Tetrahymena group I intron in knt gene, E. coli kanamycin selection, DiMSum; sequences stand for … in CUCUCU…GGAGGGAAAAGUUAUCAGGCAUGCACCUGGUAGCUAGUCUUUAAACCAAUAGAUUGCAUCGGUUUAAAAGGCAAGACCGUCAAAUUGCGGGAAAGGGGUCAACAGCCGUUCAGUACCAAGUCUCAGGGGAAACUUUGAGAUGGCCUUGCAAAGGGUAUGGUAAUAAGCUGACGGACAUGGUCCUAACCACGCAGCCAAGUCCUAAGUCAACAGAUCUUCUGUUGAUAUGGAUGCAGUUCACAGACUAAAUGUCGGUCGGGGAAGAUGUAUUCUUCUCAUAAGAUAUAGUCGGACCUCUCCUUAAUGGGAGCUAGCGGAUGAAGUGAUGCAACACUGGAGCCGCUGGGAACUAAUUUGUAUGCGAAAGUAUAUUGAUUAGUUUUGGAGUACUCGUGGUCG
- Applied conditions: 37 °C
Output schema: class label derived from self-splicing fitness (ln). Mapping: low range: < -2; mid range: ≥ -2 and < -1; high range: ≥ -1

Determine which band this sequence sits in: `UAAAAGCAAUAUUACGGCGU`
high range

Determine which band this sequence sits in: `UGUUAGCAAUAUUACGAGUU`
mid range

Determine which band this sequence sits in: `UGUAAGCAAUAUUACGUUAU`
low range

Determine which band this sequence sits in: `AGCCAGCAAUAUUACGGUAU`
mid range

Determine which band this sequence sits in: `UAUUAGCAAUAUUACGCCUA`
high range

Determine which band this sequence sits in: `CACCAGCAAUAUUACGAGUG`
low range

Determine which band this sequence sits in: `AUGAAGCAAUAUUACGUCAA`
high range

Determine which band this sequence sits in: `UUUUAGCAAUAUUACGGACU`
high range

Determine which band this sequence sits in: `ACUAAGCAAUAUUACGCCUA`
high range

Determine which band this sequence sits in: `UAGGAGCAAUAUUACGAUUU`
mid range

Determine which band this sequence sits in: `AGGUAGCAAUAUUACGUUAU`
low range

Determine which band this sequence sits in: `UUAUAGCAAUAUUACGAUAC`
mid range

Determine which band this sequence sits in: `GUGAAGCAAUAUUACGGCUU`
low range

Determine which band this sequence sits in: `ACCAAGCAAUAUUACGGUGG`
low range

Determine which band this sequence sits in: `UUAAAGCAAUAUUACGCACA`
high range

Determine which band this sequence sits in: `GAUCAGCAAUAUUACGAGUC`
high range

Determine which band this sequence sits in: `CAUAAGCAAUAUUACGCGUG`
low range

Determine which band this sequence sits in: `UGAAAGCAAUAUUACGAACC`
mid range

Determine which band this sequence sits in: `AUACAGCAAUAUUACGAGCG`
high range

Determine which band this sequence sits in: `CCGAAGCAAUAUUACGAAAA`
mid range

Determine which band this sequence sits in: `AUGCAGCAAUAUUACGGGCU`
mid range

Determine which band this sequence sits in: `CGGAAGCAAUAUUACGAACU`
high range

Determine which band this sequence sits in: `GCUGAGCAAUAUUACGCCUC`
mid range

Determine which band this sequence sits in: `AUCCAGCAAUAUUACGCUAU`
mid range

Determine which band this sequence sits in: `AUAAAGCAAUAUUACGACUU`
high range

Determine which band this sequence sits in: `GCGUAGCAAUAUUACGUACU`
high range

Determine which band this sequence sits in: `UCGAAGCAAUAUUACGGCAG`
high range

Determine which band this sequence sits in: `AGUGAGCAAUAUUACGAUAC`
low range

Determine which band this sequence sits in: `UAGUAGCAAUAUUACGAGAC`
mid range

Determine which band this sequence sits in: `AUAGAGCAAUAUUACGCAUU`
high range

Determine which band this sequence sits in: `CGUAAGCAAUAUUACGGCGU`
mid range

Determine which band this sequence sits in: `AUGCAGCAAUAUUACGUGUA`
high range

Determine which band this sequence sits in: `GGCAAGCAAUAUUACGAGCG`
high range

Determine which band this sequence sits in: `GAGAAGCAAUAUUACGGUGA`
high range

Determine which band this sequence sits in: `UUGAAGCAAUAUUACGAGAG`
high range

Determine which band this sequence sits in: `UCAUAGCAAUAUUACGGUGC`
low range

Determine which band this sequence sits in: `CAGAAGCAAUAUUACGUUUU`
low range

Determine which band this sequence sits in: `UAAUAGCAAUAUUACGUAGU`
low range

Determine which band this sequence sits in: `GAUAAGCAAUAUUACGGCGC`
high range

Determine which band this sequence sits in: `UGCCAGCAAUAUUACGUGGC`
low range

Determine which band this sequence sits in: `AUACAGCAAUAUUACGAGGC`
low range

Determine which band this sequence sits in: `CAACAGCAAUAUUACGUCAU`
mid range

Determine which band this sequence sits in: `CCGUAGCAAUAUUACGUUCG`
high range

Determine which band this sequence sits in: `GGAUAGCAAUAUUACGGUCC`
low range

Determine which band this sequence sits in: `UCUCAGCAAUAUUACGUAAG`
mid range

Determine which band this sequence sits in: `CUAUAGCAAUAUUACGGUGU`
mid range

Determine which band this sequence sits in: `CGCGAGCAAUAUUACGAGCC`
mid range

Determine which band this sequence sits in: `CUACAGCAAUAUUACGACGU`
low range

Determine which band this sequence sits in: `CGGCAGCAAUAUUACGACAU`
mid range

Determine which band this sequence sits in: `CCUUAGCAAUAUUACGGCGU`
low range

Determine which band this sequence sits in: `ACGGAGCAAUAUUACGUGCG`
mid range

Determine which band this sequence sits in: `AGUUAGCAAUAUUACGGCCG`
high range

Determine which band this sequence sits in: `CCCUAGCAAUAUUACGCGAC`
low range

Determine which band this sequence sits in: `CAGUAGCAAUAUUACGGGUG`
high range

Determine which band this sequence sits in: `UUAUAGCAAUAUUACGUGGU`
low range

Determine which band this sequence sits in: `GUAUAGCAAUAUUACGGUAU`
low range

Determine which band this sequence sits in: `GUUCAGCAAUAUUACGGAUA`
high range

Determine which band this sequence sits in: `UUACAGCAAUAUUACGAUAU`
high range

Determine which band this sequence sits in: `GACAAGCAAUAUUACGUAAC`
mid range

Determine which band this sequence sits in: `ACAUAGCAAUAUUACGUUGU`
low range

Determine which band this sequence sits in: `UUCCAGCAAUAUUACGUCCC`
mid range

Determine which band this sequence sits in: `UAACAGCAAUAUUACGGAAC`
low range
